Biological target: hCRTH2 receptor (Homo sapiens, UniProt Q9Y5Y4)
Construct: expressed in transfected cells; host or cells: HEK293
Sequence (Q9Y5Y4 whole entry): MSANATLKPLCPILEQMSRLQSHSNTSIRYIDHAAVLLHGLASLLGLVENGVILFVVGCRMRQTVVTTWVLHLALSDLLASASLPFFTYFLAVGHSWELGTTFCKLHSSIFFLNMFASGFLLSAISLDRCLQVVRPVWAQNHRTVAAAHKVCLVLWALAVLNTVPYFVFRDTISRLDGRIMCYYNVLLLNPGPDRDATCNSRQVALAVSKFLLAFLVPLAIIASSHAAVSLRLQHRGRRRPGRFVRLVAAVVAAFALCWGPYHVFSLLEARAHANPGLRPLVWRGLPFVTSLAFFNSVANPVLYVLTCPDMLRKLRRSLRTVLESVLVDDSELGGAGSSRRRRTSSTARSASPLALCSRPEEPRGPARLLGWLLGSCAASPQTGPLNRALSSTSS
Assay: Radioligand displacement assay (3H-PGD2) on hCRTH2 receptor membranes
Format: binding
Settings: antagonistic activity, 3H-PGD2 radioligand displacement, HEK293-hCRTH2 membranes
Recorded metric: IC50 (nM)

{"Molecule": "Cn1nccc1COC(=O)N1CCc2cc(F)ccc2[C@H]1c1cc(Cl)ccc1OCC(=O)O", "IC50 / nM": 3.61}
{"Molecule": "COc1ccc2[nH]cc(CCC(=O)N3CCc4cc(F)ccc4C3c3cc(Cl)ccc3OCC(=O)O)c2c1 (racemic)", "IC50 / nM": 90.1}
{"Molecule": "O=C(O)COc1ccc(Cl)cc1[C@@H]1c2ccc(F)c(F)c2CCN1C(=O)OCc1ccncn1", "IC50 / nM": 4.77}
{"Molecule": "Cc1ccc(CCC(=O)N2CCc3ccccc3C2c2cc(Cl)ccc2OCC(=O)O)c(C)n1 (racemic)", "IC50 / nM": 200}
{"Molecule": "O=C(O)COc1ccc(Cl)cc1[C@@H]1c2ccccc2CCN1C(=O)OCn1ncc2ccccc21", "IC50 / nM": 1.06}

(1) COc1ccc(OCC(=O)N2CCc3ccccc3C2c2cc(Cl)ccc2OCC(=O)O)cc1 (racemic)
(2) Cc1conc1COC(=O)N1CCc2cc(F)ccc2[C@H]1c1cc(Cl)ccc1OCC(=O)O
Problem: Please tell me which of the two, 1 or 2 , has the higher reported IC50 value. Selection: enter the item's label.
Solution: 1
(1: 210 nM, 2: 7.29 nM)

(I) Cc1cnn(COC(=O)N2CCc3ccccc3[C@H]2c2cc(Cl)ccc2OCC(=O)O)c1
(II) O=C(O)COc1ccc(Cl)cc1C1c2ccccc2CN1C(=O)CCn1ncc2cc(F)ccc21 (single isomer, unassigned) [Example 543]
(III) O=C(O)COc1ccc(Cl)cc1C1c2ccccc2CCN1C(=O)CCN1Cc2ccccc2C1=O (racemic)
(IV) O=C(O)COc1ccc(Cl)cc1[C@@H]1c2ccc(F)cc2CCN1C(=O)OCc1ccccc1
Problem: Sort these molecules on IC50 so the largest reading comes first. Your answer should be the labels, listed in the requested order.
Solution: II, III, IV, I
(II: 353 nM, III: 130 nM, IV: 4.89 nM, I: 2.08 nM)

(A) Cc1ccccc1CCC(=O)N1Cc2ccccc2C1c1cc(Cl)ccc1OCC(=O)O (racemic)
(B) O=C(O)COc1ccc(Cl)cc1C1c2ccccc2CCN1C(=O)CCn1ccc2ccncc21 (racemic)
(C) Cc1nn(CCC(=O)N2Cc3ccccc3C2c2cc(Cl)ccc2OCC(=O)O)c2cc(Cl)ccc12 (single isomer, unassigned) [Example 532]
(D) O=C(O)COc1ccc(Cl)cc1[C@@H]1c2ccc(F)c(F)c2CCN1C(=O)OCc1nccs1
Problem: Sort these molecules on IC50 so the largest reading comes first. Your answer should be the labels, listed in the requested order.
Solution: B, A, C, D
(B: 596 nM, A: 78.8 nM, C: 40.7 nM, D: 6.83 nM)

---

Biological target: hCRTH2 receptor (Homo sapiens)
Construct: expressed in transfected cells; host or cells: HEK293
Test: Radioligand displacement assay (3H-PGD2) on hCRTH2 receptor membranes
Format: binding
Details: antagonistic activity, 3H-PGD2 radioligand displacement, HEK293-hCRTH2 membranes
Recorded metric: IC50 (nM)

Completed entries (count: 2):
{"Molecule": "Cc1ccccc1[C@@H]1C[C@H]1C(=O)N1CCc2ccccc2C1c1cc(Cl)ccc1OCC(=O)O (mixture of isomers)", "IC50 / nM": 5.58}
{"Molecule": "O=C(O)COc1ccc(Cl)cc1C1c2ccccc2CCN1C(=O)NCc1ccccc1Cl (racemic)", "IC50 / nM": 15.1}

(A) COc1cc2c(ccn2CCC(=O)N2CCc3ccccc3C2c2cc(Cl)ccc2OCC(=O)O)cn1 (racemic)
(B) Cc1c(C)n(CCC(=O)N2CCc3ccccc3C2c2cc(Cl)ccc2OCC(=O)O)c2ccccc12 (racemic)
(C) Cc1ccc(OCC(=O)N2CCc3ccccc3C2c2cc(Cl)ccc2OCC(=O)O)cn1 (racemic)
(D) O=C(O)COc1ccc(Cl)cc1C1c2ccccc2CCN1C(=O)CCn1ccc2ccccc21 (racemic)
Problem: Sort these molecules on IC50 so the largest reading comes first. Your answer should be the labels, listed in the requested order.
Solution: C, A, B, D
(C: 759 nM, A: 433 nM, B: 70.4 nM, D: 11.6 nM)
